# details: in acetonitrile, 288.15 K
quantity_kind: solubility (mole fraction)
Reply with the value as a number alone.

### Prompt If you can, please state the reported solubility (mole fraction) value of O=S(=O)(c1ccc(O)cc1)c1ccccc1O .
### Response 0.0144

----------
# details: in ethyl acetate, 305.65 K
quantity_kind: solubility (mole fraction)
Give the figure by itself; no unit, no explanation.

### Prompt Entry under review: O=S(=O)(c1ccc(O)cc1)c1ccccc1O . Reported solubility (mole fraction)?
### Response 0.0585

----------
# details: in 1,4-dioxane, 278.15 K
quantity_kind: solubility (mole fraction)

### Prompt // solubility (mole fraction) lookup, key: O=S(=O)(c1ccc(O)cc1)c1ccccc1O
### Response 0.0184

----------
# details: in isopropanol, 288.15 K
quantity_kind: solubility (mole fraction)
Please reply with the number alone, leaving off any unit.

### Prompt Looking for the measured solubility (mole fraction) of O=S(=O)(c1ccc(O)cc1)c1ccccc1O , can you help?
### Response 0.0767

----------
# details: in acetone, 310.65 K
quantity_kind: solubility (mole fraction)
Just the number.

### Prompt Record request: solubility (mole fraction) value, item O=S(=O)(c1ccc(O)cc1)c1ccccc1O
### Response 0.142

----------
# details: in 1,4-dioxane, 283.15 K
quantity_kind: solubility (mole fraction)
Give the figure only, with no unit attached.

### Prompt Field request: solubility (mole fraction) | item: O=S(=O)(c1ccc(O)cc1)c1ccccc1O
### Response 0.0242

----------
# details: in acetone, 288.15 K
quantity_kind: solubility (mole fraction)

### Prompt Could you share which solubility (mole fraction) value was measured for O=S(=O)(c1ccc(O)cc1)c1ccccc1O ?
### Response 0.115

----------
# details: in 1,4-dioxane, 288.15 K
quantity_kind: solubility (mole fraction)
Output spec: single numeric token, no unit.

### Prompt Please give the measured solubility (mole fraction) for this compound: O=S(=O)(c1ccc(O)cc1)c1ccccc1O
### Response 0.0303

----------
# details: in methanol, 313.15 K
quantity_kind: solubility (mole fraction)
Could you keep your reply to the number by itself?

### Prompt # query: solubility (mole fraction) of entry O=S(=O)(c1ccc(O)cc1)c1ccccc1O
### Response 0.0838

----------
# details: in acetone, 285.65 K
quantity_kind: solubility (mole fraction)

### Prompt Item O=S(=O)(c1ccc(O)cc1)c1ccccc1O has what recorded solubility (mole fraction)?
### Response 0.112

----------
# details: in ethyl acetate, 300.65 K
quantity_kind: solubility (mole fraction)
// no unit, no text: just the number

### Prompt Consider the molecule O=S(=O)(c1ccc(O)cc1)c1ccccc1O and give its measured solubility (mole fraction).
### Response 0.054

----------
# details: in methanol, 305.65 K
quantity_kind: solubility (mole fraction)
Answer with a number only.

### Prompt Fill in: solubility (mole fraction) of O=S(=O)(c1ccc(O)cc1)c1ccccc1O is ___
### Response 0.0763

----------
# details: in ethyl acetate, 310.65 K
quantity_kind: solubility (mole fraction)
Enter the number alone.

### Prompt Query (compound): O=S(=O)(c1ccc(O)cc1)c1ccccc1O ; field requested: solubility (mole fraction)
### Response 0.0637

----------
# details: in 1,4-dioxane, 280.65 K
quantity_kind: solubility (mole fraction)
Could you respond with only the numeric value?

### Prompt Requested read-out: solubility (mole fraction). Entry: O=S(=O)(c1ccc(O)cc1)c1ccccc1O
### Response 0.0213

----------
# details: in methanol, 288.15 K
quantity_kind: solubility (mole fraction)
Number only, no unit.

### Prompt Name the recorded solubility (mole fraction) for O=S(=O)(c1ccc(O)cc1)c1ccccc1O .
### Response 0.0627

----------
# details: in isopropanol, 293.15 K
quantity_kind: solubility (mole fraction)
Enter the number alone.

### Prompt Find the recorded solubility (mole fraction) belonging to O=S(=O)(c1ccc(O)cc1)c1ccccc1O and report it.
### Response 0.0825

----------
# details: in acetone, 303.15 K
quantity_kind: solubility (mole fraction)
Keep the answer to the number alone.

### Prompt Recorded solubility (mole fraction) of O=S(=O)(c1ccc(O)cc1)c1ccccc1O , please.
### Response 0.133

----------
# details: in 2-butanone, 280.65 K
quantity_kind: solubility (mole fraction)
A bare number is all that is needed in reply.

### Prompt Request the reported solubility (mole fraction) associated with O=S(=O)(c1ccc(O)cc1)c1ccccc1O
### Response 0.103

----------
# details: in acetonitrile, 305.65 K
quantity_kind: solubility (mole fraction)
Returns: the value as a bare number; no unit string appended.

### Prompt Name the recorded solubility (mole fraction) for O=S(=O)(c1ccc(O)cc1)c1ccccc1O .
### Response 0.0236

----------
# details: in acetonitrile, 295.65 K
quantity_kind: solubility (mole fraction)
# respond with the number and nothing more

### Prompt What solubility (mole fraction) value was documented for this molecule, O=S(=O)(c1ccc(O)cc1)c1ccccc1O ?
### Response 0.0179

----------
# details: in methanol, 280.65 K
quantity_kind: solubility (mole fraction)

### Prompt Look at this molecule and give its reported solubility (mole fraction). O=S(=O)(c1ccc(O)cc1)c1ccccc1O
### Response 0.0583

----------
# details: in ethanol, 313.15 K
quantity_kind: solubility (mole fraction)
When you answer, write just the number.

### Prompt Find the recorded solubility (mole fraction) belonging to O=S(=O)(c1ccc(O)cc1)c1ccccc1O and report it.
### Response 0.0957

----------
# details: in acetonitrile, 300.65 K
quantity_kind: solubility (mole fraction)
A bare number is all that is needed in reply.

### Prompt Any idea what its solubility (mole fraction) is? The molecule is O=S(=O)(c1ccc(O)cc1)c1ccccc1O
### Response 0.0204

----------
# details: in 2-butanone, 300.65 K
quantity_kind: solubility (mole fraction)

### Prompt What solubility (mole fraction) value was documented for this compound, O=S(=O)(c1ccc(O)cc1)c1ccccc1O ?
### Response 0.12

----------
# details: in acetone, 293.15 K
quantity_kind: solubility (mole fraction)
// no unit string in output, number only

### Prompt Return reported solubility (mole fraction); argument: O=S(=O)(c1ccc(O)cc1)c1ccccc1O
### Response 0.12

----------
# details: in acetonitrile, 313.15 K
quantity_kind: solubility (mole fraction)
Give a plain numeric answer without units written out.

### Prompt Dear colleague, I am looking for the recorded solubility (mole fraction) of the following compound: O=S(=O)(c1ccc(O)cc1)c1ccccc1O
### Response 0.0295

----------
# details: in n-butanol, 313.15 K
quantity_kind: solubility (mole fraction)

### Prompt // lookup solubility (mole fraction) for O=S(=O)(c1ccc(O)cc1)c1ccccc1O
### Response 0.0751

----------
# details: in ethyl acetate, 313.15 K
quantity_kind: solubility (mole fraction)
# print the numeric value only

### Prompt For O=S(=O)(c1ccc(O)cc1)c1ccccc1O , what is its reported solubility (mole fraction)?
### Response 0.0669

----------
# details: in n-butanol, 310.65 K
quantity_kind: solubility (mole fraction)
No unit in the answer, only the number.

### Prompt I'd like to know its solubility (mole fraction). The compound in question is O=S(=O)(c1ccc(O)cc1)c1ccccc1O
### Response 0.0734

----------
# details: in ethanol, 293.15 K
quantity_kind: solubility (mole fraction)
Please reply with the value in numeric form only.

### Prompt Any idea what its solubility (mole fraction) is? The compound is O=S(=O)(c1ccc(O)cc1)c1ccccc1O
### Response 0.0766

----------
# details: in 2-butanone, 283.15 K
quantity_kind: solubility (mole fraction)
Please respond with just the number, no unit label.

### Prompt Which solubility (mole fraction) reading was recorded for the compound O=S(=O)(c1ccc(O)cc1)c1ccccc1O ?
### Response 0.105

----------
# details: in ethanol, 308.15 K
quantity_kind: solubility (mole fraction)
Just the number, please, no unit after it.

### Prompt Param item = O=S(=O)(c1ccc(O)cc1)c1ccccc1O ; retrieve measured solubility (mole fraction).
### Response 0.0898

----------
# details: in isopropanol, 285.65 K
quantity_kind: solubility (mole fraction)
The answer should be a number; do not append a unit.

### Prompt Field request: solubility (mole fraction) | item: O=S(=O)(c1ccc(O)cc1)c1ccccc1O
### Response 0.074

----------
# details: in ethanol, 285.65 K
quantity_kind: solubility (mole fraction)
Just the number, please, no unit attached.

### Prompt For the molecule shown here, O=S(=O)(c1ccc(O)cc1)c1ccccc1O , give the reported solubility (mole fraction).
### Response 0.0706

----------
# details: in 1,4-dioxane, 300.65 K
quantity_kind: solubility (mole fraction)
Please respond with just the number, no unit label.

### Prompt Entry O=S(=O)(c1ccc(O)cc1)c1ccccc1O has what solubility (mole fraction)?
### Response 0.0514

----------
# details: in acetonitrile, 298.15 K
quantity_kind: solubility (mole fraction)
# output: bare number, no unit

### Prompt What value of measured solubility (mole fraction) is listed for O=S(=O)(c1ccc(O)cc1)c1ccccc1O ?
### Response 0.0192

----------
# details: in isopropanol, 278.15 K
quantity_kind: solubility (mole fraction)
I only need the number, thanks.

### Prompt Query (compound): O=S(=O)(c1ccc(O)cc1)c1ccccc1O ; field requested: solubility (mole fraction)
### Response 0.0656
